Test system: amidase
Experimental Details: Mouse liver microsomal amidase, isoniazid to isonicotinic acid
Type: biochemical
Reported Conditions: 10 uM
Measurement Type: Amidase inhibition (%)
Reply numerically in %, unit not repeated.

>  <Compound>
CCCCC[C@H](O)CC(=O)CCc1ccc(O)c(OC)c1

>  <Measured Result>
0.5

$$$$
>  <Compound>
O=C1c2c(O)cc(O)cc2O[C@H](c2ccc(O)c(O)c2)[C@H]1O [(+)-Taxifolin]

>  <Measured Result>
32.2

$$$$
>  <Compound>
O=c1cc(-c2ccccc2)oc2cc(O)c(O)c(O)c12

>  <Measured Result>
5.7

$$$$
>  <Compound>
O=c1c(O)c(-c2ccc(O)cc2O)oc2cc(O)cc(O)c12

>  <Measured Result>
9.1

$$$$
>  <Compound>
COc1ccc([C@@H]2CC(=O)c3c(O)cc(O[C@@H]4O[C@H](CO)[C@@H](O)[C@H](O)[C@H]4O[C@@H]4O[C@@H](C)[C@H](O)[C@@H](O)[C@H]4O)cc3O2)cc1

>  <Measured Result>
8.1

$$$$

Query: Tell us which Amidase inhibition value is on record for CC1(C)[C@@H](O[C@H]2O[C@H](C(=O)O)[C@@H](O)[C@H](O)[C@H]2O[C@@H]2O[C@H](C(=O)O)[C@@H](O)[C@H](O)[C@H]2O)CC[C@]2(C)[C@H]3C(=O)C=C4[C@@H]5C[C@@](C)(C(=O)O)CC[C@]5(C)CC[C@@]4(C)[C@]3(C)CC[C@@H]12
Reply: 4.3

Query: Tell us which Amidase inhibition value is on record for O=c1ccc2ccc(O)cc2o1
Reply: −1.0

Query: Tell us which Amidase inhibition value is on record for COc1cc(-c2oc3cc(O)cc(O)c3c(=O)c2O)ccc1O
Reply: 20.0

Query: Tell us which Amidase inhibition value is on record for COc1ccc(-c2cc(=O)c3c(O)c(OC)c(OC)cc3o2)cc1O
Reply: 7.5

Query: Tell us which Amidase inhibition value is on record for O=C1C[C@@H](c2ccc(O)c(O)c2)Oc2cc(O)cc(O)c21
Reply: 6.5

Query: Tell us which Amidase inhibition value is on record for COc1ccc(-c2cc(=O)c3c(OC)c(OC)c(OC)cc3o2)cc1OC
Reply: 6.6

Query: Tell us which Amidase inhibition value is on record for COc1ccc(-c2oc3cc(O)cc(O)c3c(=O)c2O)cc1O
Reply: 27.9

Query: Tell us which Amidase inhibition value is on record for CC(C)[C@@H](C)/C=C/[C@@H](C)[C@H]1CC[C@H]2C3=CC=C4C[C@@H](O)CC[C@]4(C)[C@H]3CC[C@]12C
Reply: −0.4

Query: Tell us which Amidase inhibition value is on record for C[C@@H]1O[C@@H](OC[C@H]2O[C@@H](Oc3cc(O)c4c(c3)O[C@H](c3ccc(O)c(O)c3)CC4=O)[C@H](O)[C@@H](O)[C@@H]2O)[C@H](O)[C@H](O)[C@H]1O
Reply: 19.0

Query: Tell us which Amidase inhibition value is on record for O=C(O)c1ccc(O)c(O)c1
Reply: 10.9

====

Tested On: human liver microsomal cytochrome P450 2E1 (CYP2E1) (Homo sapiens)
Sequence (P05181 whole entry): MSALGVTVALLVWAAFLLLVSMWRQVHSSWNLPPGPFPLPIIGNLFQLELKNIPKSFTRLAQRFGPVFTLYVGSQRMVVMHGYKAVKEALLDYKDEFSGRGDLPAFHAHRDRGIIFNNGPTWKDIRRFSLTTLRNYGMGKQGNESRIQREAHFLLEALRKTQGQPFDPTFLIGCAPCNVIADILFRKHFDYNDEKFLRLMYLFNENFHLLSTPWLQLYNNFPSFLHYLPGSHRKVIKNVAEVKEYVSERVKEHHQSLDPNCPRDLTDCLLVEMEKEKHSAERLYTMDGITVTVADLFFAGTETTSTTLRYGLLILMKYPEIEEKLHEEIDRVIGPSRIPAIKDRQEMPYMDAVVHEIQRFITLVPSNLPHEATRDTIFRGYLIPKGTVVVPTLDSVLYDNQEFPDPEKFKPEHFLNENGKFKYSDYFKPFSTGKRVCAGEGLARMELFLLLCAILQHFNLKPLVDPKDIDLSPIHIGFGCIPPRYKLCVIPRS
Experimental Details: Human liver microsomal CYP2E1, chlorzoxazone 6-hydroxylation;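 further: chlorzoxazone added as substrate, 6-hydroxychlorzoxazone formation quantified by LC/MS/MS after 30 min at 37 °C with NADP+ regenerating system, compared against solvent control without test sample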
Reported Conditions: 66 μM
Measurement Type: Inhibition of CYP 2E1 (%)
Reply numerically in %, unit not repeated.

See these solved cases before continuing.
>  <Molecule>
O=S(=O)([O-])NC1CCCCC1.[Na+] [Sodium cyclamate]

>  <Inhibition of CYP 2E1, %>
9.1

$$$$
>  <Molecule>
O=c1cc(-c2ccc(O)c(O)c2)oc2cc(O[C@@H]3O[C@H](CO)[C@@H](O)[C@H](O)[C@H]3O)cc(O)c12 [Luteolin-7-Glucoside]

>  <Inhibition of CYP 2E1, %>
60.26

$$$$

Now consider the entry below.
Query: Tell us which Inhibition of CYP 2E1 value is on record for COc1c(O)cc2oc(Oc3ccc(O)cc3)cc(=O)c2c1O
Reply: 57.31

# credit: patent US8969312B2
